Values were extracted from PubChem BioAssay (NCI).

Quick reference: growth of the listed items.
- Tested on: MDA-MB-435 melanoma
- Assay Remarks: NCI-60 one-dose screen, 48 h (100 = growth as untreated, 0 = no growth, -100 = all killed)
- Condition Set: 10 µM unless noted
The panel holds about 83,000 compounds, 20% with a hit somewhere; the sample as a whole holds those more often.
Endpoint Name: growth (%)

[[record]]
structure = "CCCCCCCCCCCCCCCC[N+]1(C)CCOCC1"
measured_number = 26.9

[[record]]
structure = "COc1nc2c(cc1S(=O)(=O)c1ccccc1)CCc1c-2cnn1-c1ccccc1Cl"
measured_number = 65.7

[[record]]
structure = "CC(C)(C)CC(C)(C)N(CSc1ccc(Cl)cc1)CSc1ccc(Cl)cc1"
measured_number = 46.3

